This collection of values is drawn from patent US20170362301A1.

Give measured HGF-stimulated c-Met phosphorylation in NCI-H292 cells IC50 for each item. Keep answers brief.
# EXPERIMENTAL SYSTEM: c-Met on cells (NCI-H441, NCI-H292, U87-MG) (human, UniProt P08581 25-1390)
# Sequence (P08581 other isoform, or with tags, fused parts or gaps limits assumed): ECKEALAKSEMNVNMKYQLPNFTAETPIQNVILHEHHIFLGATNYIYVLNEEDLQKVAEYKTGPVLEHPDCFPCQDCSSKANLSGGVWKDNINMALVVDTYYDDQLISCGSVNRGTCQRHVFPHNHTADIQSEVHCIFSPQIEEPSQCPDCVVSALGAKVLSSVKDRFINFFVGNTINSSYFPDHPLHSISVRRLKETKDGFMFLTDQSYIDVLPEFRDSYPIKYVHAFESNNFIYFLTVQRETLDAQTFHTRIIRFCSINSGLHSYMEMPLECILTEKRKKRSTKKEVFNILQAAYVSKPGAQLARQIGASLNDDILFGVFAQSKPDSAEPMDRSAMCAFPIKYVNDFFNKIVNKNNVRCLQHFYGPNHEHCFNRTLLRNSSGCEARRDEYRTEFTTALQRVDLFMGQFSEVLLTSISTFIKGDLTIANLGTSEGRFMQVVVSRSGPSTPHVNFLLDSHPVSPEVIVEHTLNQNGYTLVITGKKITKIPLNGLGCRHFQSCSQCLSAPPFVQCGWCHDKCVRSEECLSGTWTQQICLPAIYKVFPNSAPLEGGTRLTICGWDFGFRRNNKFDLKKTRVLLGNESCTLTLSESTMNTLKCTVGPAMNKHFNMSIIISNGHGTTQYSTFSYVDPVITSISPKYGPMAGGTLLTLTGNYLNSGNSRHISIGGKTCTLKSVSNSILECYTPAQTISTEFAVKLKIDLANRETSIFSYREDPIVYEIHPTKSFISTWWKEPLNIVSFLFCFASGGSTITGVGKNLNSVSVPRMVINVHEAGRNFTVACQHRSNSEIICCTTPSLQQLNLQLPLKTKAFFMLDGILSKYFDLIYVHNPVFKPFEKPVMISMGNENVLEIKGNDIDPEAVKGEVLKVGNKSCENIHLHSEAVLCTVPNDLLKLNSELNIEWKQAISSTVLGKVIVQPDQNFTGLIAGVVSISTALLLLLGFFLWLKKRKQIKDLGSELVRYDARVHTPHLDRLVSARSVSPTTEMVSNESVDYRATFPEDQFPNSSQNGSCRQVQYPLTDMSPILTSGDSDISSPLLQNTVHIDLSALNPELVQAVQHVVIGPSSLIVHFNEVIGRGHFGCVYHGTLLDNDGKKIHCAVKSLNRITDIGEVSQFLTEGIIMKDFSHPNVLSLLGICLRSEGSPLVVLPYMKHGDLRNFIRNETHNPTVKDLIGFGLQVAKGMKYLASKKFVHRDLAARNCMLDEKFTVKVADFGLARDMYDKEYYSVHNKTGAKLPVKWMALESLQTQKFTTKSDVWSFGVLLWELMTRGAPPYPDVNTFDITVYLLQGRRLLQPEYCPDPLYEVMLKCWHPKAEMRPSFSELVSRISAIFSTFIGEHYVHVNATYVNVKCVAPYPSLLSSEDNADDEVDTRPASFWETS
# ASSAY NAME: cell-based or functional assay
# number only, unit pM dropped from output

Looking up ECB147v7-PEG24 (designed binder, PEG24-maleimide on the engineered cysteines) MLPAPKNLVVSEVTEDSARLSWDDPWAFYESFLIQYQESEKVGEAIVLTVPGSERSYDLTGLKPGTEYTVSIYGVHNVYKDTNMRGLPLSAIFTTAPCPAPAPAPLPAPKNLVVSRVTEDSARLSWTAPDAAFDSFWIRYFEFLGSGEAIVLTVPGSERSYDLTGLKPGTEYVVNIMSVKGGSISPPLSAIFTTAPCPAPAPAPLAEAKVLANRELDKYGVSDYYKNLINNAKTVEGVKALLDEILAALP , I see its HGF-stimulated c-Met phosphorylation in NCI-H292 cells IC50 listed as 500

Looking up ECB38 (designed binder) MLPAPKNLVVSEVTEDSARLSWDDPWAFYESFLIQYQESEKVGEAIVLTVPGSERSYDLTGLKPGTEYTVSIYGVHNVYKDTNMRGLPLSAIFTTAPAPAPAPAPLPAPKNLVVSRVTEDSARLSWTAPDAAFDSFWIRYFEFLGSGEAIVLTVPGSERSYDLTGLKPGTEYVVNIMGVKGGKISPPLSAIFTTAPAPAPAPAPLAEAKVLANRELDKYGVSDYYKNLINNAKTVEGVKALLDEILAALP , I see its HGF-stimulated c-Met phosphorylation in NCI-H292 cells IC50 listed as 1300

Looking up ECB147v3-PEG24 (designed binder, PEG24-maleimide on the engineered cysteines) MLPAPKNLVVSEVTEDSARLSWDDPWAFYESFLIQYQESEKVGEAIVLTVPGSERSYDLTGLCPGTEYTVSIYGVHNVYKDTNMRGLPLSAIFTTAPCPAPAPAPLPAPKNLVVSRVTEDSARLSWTAPDAAFDSFWIRYFEFLGSGEAIVLTVPGSERSYDLTGLCPGTEYVVNIMSVKGGSISPPLSAIFTTAPCPAPAPAPLAEAKVLANRELDKYGVSDYYKNLINNAKTVEGVKALLDEILAALP , I see its HGF-stimulated c-Met phosphorylation in NCI-H292 cells IC50 listed as 500

Looking up ECB147v6-PEG24 (designed binder, PEG24-maleimide on the engineered cysteine) MLPAPKNLVVSEVTEDSARLSWDDPWAFYESFLIQYQESEKVGEAIVLTVPGSERSYDLTGLCPGTEYTVSIYGVHNVYKDTNMRGLPLSAIFTTAPAPAPAPAPLPAPKNLVVSRVTEDSARLSWTAPDAAFDSFWIRYFEFLGSGEAIVLTVPGSERSYDLTGLKPGTEYVVNIMSVKGGSISPPLSAIFTTAPAPAPAPAPLAEAKVLANRELDKYGVSDYYKNLINNAKTVEGVKALLDEILAALP , I see its HGF-stimulated c-Met phosphorylation in NCI-H292 cells IC50 listed as 400

Looking up ECB147v5-PEG24 (designed binder, PEG24-maleimide on the engineered cysteines) MLPAPKNLVVSEVTEDSARLSWDDPWAFYESFLIQYQESEKVGEAIVLTVPGSERSYDLTGLCPGTEYTVSIYGVHNVYKDTNMRGLPLSAIFTTAPAPAPAPAPLPAPKNLVVSRVTEDSARLSWTAPDAAFDSFWIRYFEFLGSGEAIVLTVPGSERSYDLTGLCPGTEYVVNIMSVKGGSISPPLSAIFTTAPAPAPAPAPLAEAKVLANRELDKYGVSDYYKNLINNAKTVEGVKALLDEILAALP , I see its HGF-stimulated c-Met phosphorylation in NCI-H292 cells IC50 listed as 400
